tested-target: cynomolgus TCRvβ (BJM0847) (cynomolgus)
method-description: SPR (Biacore): antibody captured on Protein L chip, BJM0847 as analyte, 1:1 fit
readout: Kd (nM)
Answers are plain numbers, in nM.

Lab book: Kd of A-H.65 (scFv) scFv: QVQLVQSGAEVKKPGSSVKVSCKASGHDFKLTYIHWVRQAPGQGLEWMGRISAGSGNTKYNEKFKGRVTITADTSTSTAYMELSSLRSEDTAVYYCAVSYYSYDVLDYWGQGTTVTVSSGGGGSGGGGSGGGGSGGGGSDIQMTQSPSFLSASVGDRVTITCKASQNVGDRVVWHQQKPGKAPKALIYSSSHRYKGVPSRFSGSGSGTEFTLTISSLQPEDFATYFCQQFKSYPLTFGQGTKLEIK noted as 0.725

Data provenance: patent US20230102344A1
